Attribution: ChEMBL document CHEMBL5137026

Hi there, I'd appreciate the recorded log10(Cmax) for every entry that follows.
# assay_method_text: Cmax in po dosed CD-1 mouse by LC/MS/MS analysis; further: test concentration or dose not given here
# Format: ADME, organism-based
# Set-up: route po
# condition_context: in vivo
All values: base-10 log of Cmax in ng/mL.

These solved cases illustrate the format of a correct answer.
- molecule: "[2H]c1nc([2H])n(C2CCC(C)(C)C(/C=C/C(C)=C/C=C/C(C)=C/C(=O)Nc3c([2H])c([2H])c(F)c([2H])c3[2H])=C2C)c1[2H] (racemic)"
  experimental_result: 2.66
- molecule: "[2H]c1nc([2H])n(C2([2H])CCC(C)(C)C(/C=C/C(C)=C/C=C/C(C)=C/C(=O)Nc3ccc(F)cc3)=C2C)c1[2H] (racemic)"
  experimental_result: 2.70
- molecule: "[2H]c1c([2H])c(NC(=O)/C=C(C)/C=C/C=C(C)/C=C/C2=C(C)C(n3ccnc3)CCC2(C)C)c([2H])c([2H])c1F (racemic)"
  experimental_result: 2.44
- molecule: "[2H]C1(n2ccnc2)CCC(C)(C)C(/C=C/C(C)=C/C=C/C(C)=C/C(=O)Nc2ccc(F)cc2)=C1C (racemic)"
  experimental_result: 3.01
- molecule: "CC1=C(/C=C/C(C)=C/C=C/C(C)=C/C(=O)Nc2ccc(F)cc2)C(C)(C)CCC1n1ccnc1 (racemic; form 1)"
  experimental_result: 3.67
- molecule: "[2H]c1nc([2H])n(C2CCC(C)(C)C(/C=C/C(C)=C/C=C/C(C)=C/C(=O)Nc3ccc(F)cc3)=C2C)c1[2H] (racemic)"
  experimental_result: 2.18
- molecule: "[2H]c1c([2H])c(NC(=O)/C=C(C)/C=C/C=C(C)/C=C/C2=C(C)C([2H])(n3ccnc3)CCC2(C)C)c([2H])c([2H])c1F (racemic)"
  experimental_result: 3.13

Query molecule follows.
Task item: Which log10(Cmax) is reported for this molecule? [2H]c1nc([2H])n(C2([2H])CCC(C)(C)C(/C=C/C(C)=C/C=C/C(C)=C/C(=O)Nc3c([2H])c([2H])c(F)c([2H])c3[2H])=C2C)c1[2H] (racemic)
Reply: 3.21
